# Measured on: human type 2 5α-reductase (Homo sapiens, UniProt P31213)
# Sequence (P31213 1-254): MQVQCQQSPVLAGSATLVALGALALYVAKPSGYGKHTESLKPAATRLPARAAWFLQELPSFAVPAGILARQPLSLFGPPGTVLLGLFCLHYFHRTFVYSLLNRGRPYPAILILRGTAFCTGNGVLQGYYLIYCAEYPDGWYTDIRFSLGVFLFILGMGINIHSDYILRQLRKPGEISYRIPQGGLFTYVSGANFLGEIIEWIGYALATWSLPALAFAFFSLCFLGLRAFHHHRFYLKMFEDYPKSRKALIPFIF
# Assay details: 5α-reductase in vitro inhibitory activity, human type 2
pIC50: −log10 of the molar value.
Parameter: pIC50

For the compound C[C@]12CC[C@H]3[C@@H](CNC4=CC(=O)CC[C@@]43C)[C@@H]1CC[C@@H]2C(=O)Nc1ccc2c(c1)CCC2 [Compound 4] , give its measured pIC50 value.
> 8.00

For the compound C[C@]12CC[C@H]3[C@@H](CNC4=CC(=O)CC[C@@]43C)[C@@H]1CC[C@@H]2C(=O)NC(C1CCCCC1)C1CCCCC1 [Compound 34] , give its measured pIC50 value.
> 8.00

For the compound CC(C)(C)c1ccc(-c2ccc(C(C)(C)C)c(NC(=O)[C@H]3CC[C@H]4[C@@H]5CNC6=CC(=O)CC[C@]6(C)[C@H]5CC[C@]34C)c2)cc1 [Compound 147] , give its measured pIC50 value.
> 8.00

Data provenance: patent EP0674651B1
